Reported values of Hill Coefficient for individual entries
Molecular target: human ORL1 (Homo sapiens)
Construct: expressed in transfected cells; host or cells: CHO cells (G418-selected)
Sequence (P41146 whole entry): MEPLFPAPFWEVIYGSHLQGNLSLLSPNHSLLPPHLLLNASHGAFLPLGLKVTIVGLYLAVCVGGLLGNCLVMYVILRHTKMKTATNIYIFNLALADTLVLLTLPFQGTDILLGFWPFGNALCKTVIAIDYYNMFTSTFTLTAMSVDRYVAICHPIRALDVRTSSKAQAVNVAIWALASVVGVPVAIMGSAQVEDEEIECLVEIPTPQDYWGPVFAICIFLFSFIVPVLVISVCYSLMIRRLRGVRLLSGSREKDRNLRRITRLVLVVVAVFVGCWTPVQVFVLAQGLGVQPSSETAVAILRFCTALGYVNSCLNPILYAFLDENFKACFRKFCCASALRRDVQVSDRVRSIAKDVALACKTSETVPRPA
Experiment: [3H]nociceptin binding to membranes of CHO cells transfected with human ORL1
Conditions: Table 5
Numbered stars: 1 amine (or outer) side, 2 acyl side, 3 side chain; on linkers, the order of the positions; unused ones are H or OH. Square brackets hold non-standard residues; d marks the D form. Peptide text beside a SMILES is read from it. * marks the point of attachment. X1 = O=C([C@H](CCc1ccc([N+](=O)[O-])cc1[N+](=O)[O-])N[*:1])[*:2]; Phe(4-NO2) = N[C@@H](Cc1ccc([N+](=O)[O-])cc1)C(=O)O; Trp(5-CN) = N#Cc1ccc2[nH]cc(C[C@H](N)C(=O)O)c2c1; Phe(4-COOH) = N[C@@H](Cc1ccc(C(=O)O)cc1)C(=O)O; Phe(4-CH2NH2) = NCc1ccc(C[C@H](N)C(=O)O)cc1; Phe(4-Me) = Cc1ccc(C[C@H](N)C(=O)O)cc1; Dmt = Cc1cc(O)cc(C)c1C[C@H](N)C(=O)O; Phg = N[C@H](C(=O)O)c1ccccc1; Dap = NC[C@H](N)C(=O)O; Pentanoyl = CCCCC(=O)*; Ahx = NCCCCCC(=O)O

compound: CC(=O)N[C@@H](CCCNC(=N)N)C(=O)N[C@@H](Cc1ccc(O)cc1)C(=O)N[C@@H](Cc1ccc(O)cc1)C(=O)N[C@@H](CCCNC(=N)N)C(=O)N[C@@H](Cc1c[nH]c2ccccc12)C(=O)NCCCCCC(N)=O [VII-57-C] (Ac-RYYRW[Ahx]-NH2)
Hill Coefficient: 0.95
--
compound: CC(=O)N[C@@H](CCCNC(=N)N)C(=O)N[C@@H](Cc1ccc(O)cc1)C(=O)N[C@@H](CCc1ccc([N+](=O)[O-])cc1[N+](=O)[O-])C(=O)N[C@@H](CCCNC(=N)N)C(=O)N[C@@H](Cc1c[nH]c2ccccc12)C(=O)N[C@@H](CCCNC(=N)N)C(N)=O [VII-71-B] (Ac-RY[X1]RWR-NH2)
Hill Coefficient: 0.88
--
compound: COc1ccc(C[C@H](NC(=O)[C@H](CCCNC(=N)N)NC(C)=O)C(=O)N[C@@H](Cc2ccc(O)cc2)C(=O)N[C@@H](CCCNC(=N)N)C(=O)N[C@@H](Cc2c[nH]c3ccccc23)C(=O)N[C@@H](CCCNC(=N)N)C(N)=O)cc1 [VII-35-C, Ac-Arg-Tyr(4-Me)-Tyr-Arg-Trp-Arg-NH2] (Ac-RY(Me)YRWR-NH2)
Hill Coefficient: 0.75
--
compound: CC(=O)N[C@@H](CCCNC(=N)N)C(=O)N[C@@H](Cc1ccc(O)cc1)C(=O)N[C@@H](Cc1ccc([N+](=O)[O-])cc1)C(=O)N[C@@H](CCCNC(=N)N)C(=O)N[C@@H](Cc1c[nH]c2ccccc12)C(=O)N[C@@H](CCCNC(=N)N)C(N)=O [VII-63-B, Ac-Arg-Tyr-Phe(4-NO2)-Arg-Trp-Arg-NH2] (Ac-RY[Phe(4-NO2)]RWR-NH2)
Hill Coefficient: 1.01
--
compound: CC(=O)N[C@@H](CCCNC(=N)N)C(=O)N[C@H](C(=O)N[C@H](C(=O)N[C@@H](CCCNC(=N)N)C(=O)N[C@@H](Cc1c[nH]c2ccccc12)C(=O)N[C@@H](CCCNC(=N)N)C(N)=O)c1ccccc1)c1ccccc1 [VII-11-B, Ac-Arg-Phg-Phg-Arg-Trp-Arg-NH2] (Ac-R[Phg][Phg]RWR-NH2)
Hill Coefficient: 0.93
--
compound: CC(=O)N[C@@H](CCCNC(=N)N)C(=O)N[C@@H](Cc1ccc(C)cc1)C(=O)N[C@@H](Cc1ccc(C)cc1)C(=O)N[C@@H](CCCNC(=N)N)C(=O)N[C@@H](Cc1c[nH]c2ccccc12)C(=O)N[C@@H](CCCNC(=N)N)C(N)=O [VII-17-B] (Ac-R[Phe(4-Me)][Phe(4-Me)]RWR-NH2)
Hill Coefficient: 1.06
--
compound: CC(=O)N[C@@H](CCCNC(=N)N)C(=O)N[C@@H](Cc1ccc(O)cc1)C(=O)N[C@H](C(=O)N[C@@H](CCCNC(=N)N)C(=O)N[C@@H](Cc1c[nH]c2ccccc12)C(=O)N[C@@H](CCCNC(=N)N)C(N)=O)c1ccccc1 [VII-13-B, Ac-Arg-Tyr-Phg-Arg-Trp-Arg-NH2] (Ac-RY[Phg]RWR-NH2)
Hill Coefficient: 0.73
--
compound: CC(=O)N[C@@H](CCCNC(=N)N)C(=O)N[C@@H](Cc1ccc(O)cc1)C(=O)N[C@@H](Cc1ccc(CN)cc1)C(=O)N[C@@H](CCCNC(=N)N)C(=O)N[C@@H](Cc1c[nH]c2ccccc12)C(=O)N[C@@H](CCCNC(=N)N)C(N)=O [VII-79-A, Ac-Arg-Tyr-Phe(4-CH2NH2)-Arg-Trp-Arg-NH2] (Ac-RY[Phe(4-CH2NH2)]RWR-NH2)
Hill Coefficient: 0.89
--
compound: CC(=O)N[C@@H](CCCNC(=N)N)C(=O)N[C@@H](Cc1ccc(C(=O)O)cc1)C(=O)N[C@@H](Cc1ccc(O)cc1)C(=O)N[C@@H](CCCNC(=N)N)C(=O)N[C@@H](Cc1c[nH]c2ccccc12)C(=O)N[C@@H](CCCNC(=N)N)C(N)=O [VII-19-B, Ac-Arg-Phe(4-COOH)-Tyr-Arg-Trp-Arg-NH2] (Ac-R[Phe(4-COOH)]YRWR-NH2)
Hill Coefficient: 1.0
--
compound: CCCCC(=O)N[C@@H](CCCNC(=N)N)C(=O)N[C@@H](Cc1ccc(O)cc1)C(=O)N[C@@H](Cc1ccc(O)cc1)C(=O)N[C@@H](CCCNC(=N)N)C(=O)N[C@@H](Cc1c[nH]c2ccccc12)C(=O)N[C@@H](CCCNC(=N)N)C(N)=O [VII-7-B, Pentanoyl-Arg-Tyr-Tyr-Arg-Trp-Arg-NH2] (Pentanoyl-RYYRWR-NH2)
Hill Coefficient: 0.8
--
compound: CC(=O)N[C@@H](CCCNC(=N)N)C(=O)N[C@@H](Cc1ccc(O)cc1)C(=O)N[C@@H](Cc1ccc(O)cc1)C(=O)N[C@@H](CCCNC(=N)N)C(=O)N[C@@H](Cc1c[nH]c2ccc(C#N)cc12)C(=O)N[C@@H](CCCNC(=N)N)C(N)=O [VII-51-A, Ac-Arg-Tyr-Tyr-Arg-Trp(5-CN)-Arg-NH2] (Ac-RYYR[Trp(5-CN)]R-NH2)
Hill Coefficient: 0.7
--
compound: CC(=O)N[C@@H](CCCNC(=N)N)C(=O)N[C@@H](Cc1ccc(O)cc1)C(=O)N[C@@H](Cc1c(C)cc(O)cc1C)C(=O)N[C@@H](CCCNC(=N)N)C(=O)N[C@@H](Cc1c[nH]c2ccccc12)C(=O)N[C@@H](CCCNC(=N)N)C(N)=O [VII-73-A] (Ac-RY[Dmt]RWR-NH2)
Hill Coefficient: 0.95
--
compound: CC(=O)N[C@@H](CN)C(=O)N[C@@H](Cc1ccc(O)cc1)C(=O)N[C@@H](Cc1ccc(O)cc1)C(=O)N[C@@H](CCCNC(=N)N)C(=O)N[C@@H](Cc1c[nH]c2ccccc12)C(=O)N[C@@H](CCCNC(=N)N)C(N)=O [VII-65-F, Ac-Dap-Tyr-Tyr-Arg-Trp-Arg-NH2] (Ac-[Dap]YYRWR-NH2)
Hill Coefficient: 1.1
